Data provenance: the supplement of paper PMC12783771

B1: library; a variant is named by its letters at X, in order (parent)
chain: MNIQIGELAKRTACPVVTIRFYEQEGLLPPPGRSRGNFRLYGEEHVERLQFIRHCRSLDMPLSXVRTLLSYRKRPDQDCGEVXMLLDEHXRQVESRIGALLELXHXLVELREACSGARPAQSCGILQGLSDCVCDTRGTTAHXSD

# Variants of: B1
# assay explanation: sfGFP reporter fluorescence (15 h) (µM FITC); higher = stronger transcriptional activation
# condition parameters: library round: Round 3b; ligand: 30 µM Zn
metric: sfGFP reporter fluorescence
Please reply with the number alone, leaving off any unit.

Which sfGFP reporter fluorescence reading was recorded for the variant "KFATHT" ?
0.137

Look at this variant and give its reported sfGFP reporter fluorescence. "KNAVEP"
0.211

# query: sfGFP reporter fluorescence of entry "DFATET"
0.0451

Given the variant "DIATET" , what is its reported sfGFP reporter fluorescence?
0.0452

So what's the measured sfGFP reporter fluorescence for this one? "DIAKER"
0.0452

Record request: sfGFP reporter fluorescence value, item "KNIVAT"
1.42

# get_value(readout='sfGFP reporter fluorescence', item= "DFIVER" )
0.0461

# sfGFP reporter fluorescence lookup, item "KFIVEP"
0.107

Item "KIITAP" has what recorded sfGFP reporter fluorescence?
0.051

Could you share which sfGFP reporter fluorescence value was measured for "DIAVEP" ?
0.0451

Which sfGFP reporter fluorescence reading was recorded for the variant "DFAVET" ?
0.0469

Can you share its sfGFP reporter fluorescence? I mean this variant: "KIIKAT"
0.0483

Reported sfGFP reporter fluorescence for "KIAKER" : what is it?
0.0592

Consider the variant "KFAVEP" and give its measured sfGFP reporter fluorescence.
0.0557

Given the entry "KNAKAT" , report its measured sfGFP reporter fluorescence.
0.795

Could you tell me which sfGFP reporter fluorescence is on file for "DIITET" ?
0.047

Which sfGFP reporter fluorescence value is on record for "DFATAP" ?
0.0454

Item "DIITAR" has what recorded sfGFP reporter fluorescence?
0.0465

Entry "KFIVHT" : reported sfGFP reporter fluorescence = ?
0.365

GET /values?readout=sfGFP reporter fluorescence&item= "KNAVAR"
0.309

State the recorded sfGFP reporter fluorescence for this entry: "DIAVAR"
0.047

Which sfGFP reporter fluorescence is reported for this variant? "KIITHR"
0.0734
